src = the supplement of paper PMC11061612

Listing of recorded combination Emax by entry.
- Tested on: ATN-1 (T-Lymphoblastic Leukemia)
- assayProtocol: combination Emax (second highest fraction inhibited in the dose matrix, 72 h); higher = more inhibition; extreme values may be limits of the assay
Just the number, please, no unit attached.

compound: NC1(C(=O)N[C@@H](CCO)c2ccc(Cl)cc2)CCN(c2ncnc3[nH]ccc23)CC1 [Capivasertib] + CC(C)n1c(=O)n(C)c2cnc3cc(F)c(-c4ccc(OCCCN5CCCCC5)nc4)cc3c21 [AZD1390] (first compound max 10 µM, 7x7, partner max 0.3 µM)
studyTarget: ATN-1 (T-Lymphoblastic Leukemia)
combination Emax: 0.778
//
compound: Cc1c2c(nn1C)CSCc1cc(n(C)n1)CSc1cc(c3ccccc3c1)OCCCc1c(C(=O)O)n(C)c3c-2c(Cl)ccc13 [AZD5991] + CC1(C)CCC(CN2CCN(c3ccc(C(=O)NS(=O)(=O)c4ccc(NCC5CCOCC5)c([N+](=O)[O-])c4)c(Oc4cnc5[nH]ccc5c4)c3)CC2)=C(c2ccc(Cl)cc2)C1 [Venetoclax] (first compound max 1 µM, 7x7, partner max 1 µM)
studyTarget: ATN-1 (T-Lymphoblastic Leukemia)
combination Emax: 0.968

API: the following record is the query input.
Req: Look up and state reported combination Emax for C=CCn1c(=O)c2cnc(Nc3ccc(N4CCN(C)CC4)cc3)nc2n1-c1cccc(C(C)(C)O)n1 [AZD1775] + O=C(c1cc(Cc2n[nH]c(=O)c3ccccc23)ccc1F)N1CCN(C(=O)C2CC2)CC1 [Olaparib] (first compound max 1 µM, partner max 10 µM)
Resp: 1
